# Method Description: yeast display, Sf9 membrane polyspecificity reagent, FACS + sequencing; frameworks hold sequencing errors
Property Label: polyreactivity (PSR sort gate)

{"columns": ["Seq", "Value Observed"],
 "data": [
  ["QVQLVESGGGLVQAGGGLRLSCAASGRIFSRNVMGWYRQAPGKERELVAAISASGGSTYYADSVKGRFTISRDNAKNTVYLQMNSLKPEDTAVYYCAARRYPGRTATYYSWGQGTQVTVSS", "high polyreactivity"],
  ["QVQLVESGGGLVQAGGSLRLSCAASGSIFWQNGMGWYRQAPGKEREFVAAITRTGGSTYYADSVKGRFTISRDNAKNTVYLQMNSLKPEDTAVYYCAARGGYRYTRYDYWGQGTQVTVSS", "high polyreactivity"]
]}

====

# Method Description: yeast display, Sf9 membrane polyspecificity reagent, FACS + sequencing; frameworks hold sequencing errors
Property Label: polyreactivity (PSR sort gate)

Below are worked cases with known answers.
{"columns": ["Seq", "Value Observed"],
 "data": [
  ["QVQLVESGGGLVQAGGSIRLSCAASGRISTYYTMGWYRQAPGKERELVAAISWSGTSTYYADSVKGRFTISRDNAKNTVYLQMNSLKPEDTAVYYCNARWRYPLDSVTDDYWGQGTQVTVSS", "high polyreactivity"],
  ["QVQLVESGGGLVQAGGSRRLSCDASGRTFGYYAMGWYRQAPGKERELVAAISSSGGSTYYADSVKRRFTISRDNAKNTVYLQMNRLKPEDTAVYYCAADTSDTPDYYYWGPGTQVTVSS", "low polyreactivity"],
  ["QVQLVESGGGLVQAGGSLRLSCAASGSTFYVYAMGWYRQAPGKERELVAAISSSGARTYYADSVKGRFTISRDNAKNTVYLQMNSLKPEDTAVYYCAARRYYKFYYWGQGTQVTVSS", "high polyreactivity"],
  ["QVQLVESGGGLVQAGGSLRLNCAASGFTFYTYAMGWYRQAPGKERELVAAITSGGGTYYADSVKGRFTISRDNAKYSVYLQMNSLKPEDTAVYYCNRASRRGYYYPYNYWGQGTQVTVSS", "high polyreactivity"]
]}

// moving on: another record for polyreactivity (PSR sort gate)
Looking up `QVQLVESGGGIVQAGGSLRLSCAASGRIFGYYVMGWSRQAPGKESELVAAINYDGGSTYYADSVKGRFTISRDNAKNTVYLQMISLKPVDTAVYYWAAAIGNSEYGWRYDYWGQGTQVTVSS` , I see its polyreactivity (PSR sort gate) listed as low polyreactivity

====

# Method Description: yeast display, Sf9 membrane polyspecificity reagent, FACS + sequencing; frameworks hold sequencing errors
Property Label: polyreactivity (PSR sort gate)

{"columns": ["Seq", "polyreactivity (PSR sort gate)"],
 "data": [
  ["QVQLVESGGGLVQAGGSLRLSCAASGSIFGQYAMGCYRQAPGKERELVATISSSGGSTYYADSVKGRFTISRDNAKNTVYLQMNSLKPEDTAVYYCAADWTLDPSYGYYADDYWGQGTQVTVSS", "low polyreactivity"],
  ["QDQLVESGGCLVQAGGSLRLSCAASGNIFDTYVMGWYRQAPGKEMELVAAITSDGGTYYADSVKARFTISRDNAKNTVYLQMNSLKPEDTAVYYCAADTYYYPIHDYWGQGTQVTVSS", "low polyreactivity"],
  ["QVQLEESGGGLVQAGGSLRLICADSGFTFVYYARGWYRQAPGKERELVATISGNGGRTYYADSVKGRFTISRDNAKNTVYLQMNSLKPEDTAVYYCNADDPYLYYDSYDYWGQGTQVTVSS", "low polyreactivity"],
  ["QVHLVESGGGLVQAGGSLRLSCAASGFIFSVYAMGWYRQAPGKERELVAAINRSGSNTYYADSVKGRFTISRDNAKNTVYLQMNSLKPEDTAVYYCATLQGFWYYPPYIKTVQYGYWGQGTQVTVSS", "high polyreactivity"],
  ["QVQLVESGGGLVQAGGSLRLSCAASGSIFWWNTMGWYRQAPGTERELVAAITFSGGSTYYADSVKGRFTISRDNAKNTVYLQMNSLKPEDTAVYYCNADGWVSVRGTWSDGGYWGQGTQVTVSS", "low polyreactivity"]
]}

// polyreactivity (PSR sort gate) value for `QVHLVESGGGLVQAGGSLRLSCAASGITIYVYAMGWYRQAPGKEREFVAAINGRGGSPYYADSVKGRFTISRDNAKNTVYLQMNSLKPEDTAVFYCAAESLAIYYKYPPYDYWGQGSQVTVSS` : high polyreactivity
